All figures here come from ChEMBL document CHEMBL1135197.

# Test target: Geranylgeranyl transferase type I (Homo sapiens, UniProt P49354+P53609)
# Experiment: Inhibition of geranylgeranylation of the C-terminal CAAX sequence of Rap 1a in PSN-1 cells
# Type: functional, cell-based
pEC50: −log10 of the molar value.
Measure name: pEC50

Given smiles | pEC50
CCOc1ccccc1COC(=O)N1CCN(Cc2cncn2Cc2ccc(C#N)cc2)CC1 | 7.15

1. N#Cc1ccc(Cn2cncc2CN2CCN(C(=O)OCc3ccccc3CC(F)(F)F)CC2)cc1
2. N#Cc1ccc(Cn2cncc2CN2CCN(C(=O)OCc3ccccc3OC(F)(F)F)CC2)cc1
// which entry has the larger pEC50 value, 1 or 2 ? Lab note: record the label of whichever item you select.
2
(2: 7.74, 1: 7.30)

----------
# Test target: Geranylgeranyl transferase type I (Homo sapiens, UniProt P49354+P53609)
# Experiment: Inhibition of [1-3H]-GGPP incorporation into biotinylated K4B-Ras peptide by geranylgeranyl transferase in the presence of 5 mM ATP
# Type: protein-complex assay
Measure name: IC50 (nM)

Some entries whose results are on file:
Given smiles | IC50 (nM)
N#Cc1ccc(Cn2cncc2CN2CCN(C(=O)OCc3ccccc3CC(F)(F)F)CC2)cc1 | 4.82
CCOc1ccccc1COC(=O)N1CCN(Cc2cncn2Cc2ccc(C#N)cc2)CC1 | 0.32
N#Cc1ccc(Cn2cncc2CN2CCN(C(=O)OCc3ccccc3OC(F)(F)F)CC2)cc1 | 0.16

1. Cc1cccc(COC(=O)N2CCN(Cc3cncn3Cc3ccc(C#N)cc3)CC2)c1
2. COc1ccccc1COC(=O)N1CCN(Cc2cncn2Cc2ccc(C#N)cc2)CC1
Hello, I am sorting some records. Could you say if 1 or 2 has the smaller IC50 value? Lab note: record the label of whichever item you select.
2
(2: 0.84 nM, 1: 76 nM)

P. CCOc1ccccc1COC(=O)N1CCN(Cc2cnc(C)n2Cc2ccc(C#N)cc2)CC1
Q. CS(=O)(=O)c1ccccc1COC(=O)N1CCN(Cc2cncn2Cc2ccc(C#N)cc2)CC1
R. COCc1ccccc1COC(=O)N1CCN(Cc2cncn2Cc2ccc(C#N)cc2)CC1
S. Cc1ncc(CN2CCN(C(=O)OCc3ccccc3)CC2)n1Cc1ccc(C#N)cc1
Arrange the 4 compounds by rising IC50, starting with the smallest. Give your ranking as a list of the labels in the requested order.
R, Q, P, S
(R: 0.32 nM, Q: 18 nM, P: 80 nM, S: 789 nM)

----------
# Test target: Protein farnesyltransferase (Homo sapiens, UniProt P49354+P49356)
# Experiment: Inhibitor of Farnesyl protein transferase (FTPase) required to reduce radiolabel [1-3H] incorporation by 50%
# Type: protein-complex assay
pIC50: −log10 of the molar value.
Measure name: pIC50

Some entries whose results are on file:
Given smiles | pIC50
CCOc1ccccc1COC(=O)N1CCN(Cc2cncn2Cc2ccc(C#N)cc2)CC1 | 8.80
Cc1ncc(CN2CCN(C(=O)OCc3ccccc3)CC2)n1Cc1ccc(C#N)cc1 | 7.72

a. Cc1cccc(COC(=O)N2CCN(Cc3cncn3Cc3ccc(C#N)cc3)CC2)c1
b. COCc1ccccc1COC(=O)N1CCN(Cc2cncn2Cc2ccc(C#N)cc2)CC1
c. N#Cc1ccc(Cn2cncc2CN2CCN(C(=O)OCc3ccccc3CC(F)(F)F)CC2)cc1
d. N#Cc1ccc(Cn2cncc2CN2CCN(C(=O)OCc3ccc4c(c3)OCO4)CC2)cc1
Sequence the entries by pIC50, beginning with the highest number. Give your ranking as a list of the labels in the requested order.
c, b, a, d
(c: 8.60, b: 8.21, a: 7.47, d: 6.99)

A. N#Cc1ccc(Cn2cncc2CN2CCN(C(=O)OCc3ccccc3Cl)CC2)cc1
B. COc1ncccc1COC(=O)N1CCN(Cc2cncn2Cc2ccc(C#N)cc2)CC1
Hello, I am sorting some records. Could you say if A or B has the smaller pIC50 value? Lab note: record the label of whichever item you select.
B

P. COc1ccccc1COC(=O)N1CCN(Cc2cncn2Cc2ccc(C#N)cc2)CC1
Q. CCOc1ncccc1COC(=O)N1CCN(Cc2cncn2Cc2ccc(C#N)cc2)CC1
Hello, I am sorting some records. Could you say if P or Q has the smaller pIC50 value? Lab note: record the label of whichever item you select.
Q

----------
# Test target: Protein farnesyltransferase (Homo sapiens, UniProt P49354+P49356)
# Experiment: Inhibitor of Farnesyl protein transferase (FTPase) required to reduce radiolabel [1-3H] incorporation by 50%
# Assay type: protein-complex assay
Measure name: IC50 (nM)

Some entries whose results are on file:
Given smiles | IC50 / nM
CS(=O)(=O)c1ccccc1COC(=O)N1CCN(Cc2cncn2Cc2ccc(C#N)cc2)CC1 | 99
N#Cc1ccc(Cn2cncc2CN2CCN(C(=O)OCc3ccccc3OC(F)(F)F)CC2)cc1 | 0.36
N#Cc1ccc(Cn2cncc2CN2CCN(C(=O)OCc3cccc(OC(F)(F)F)c3)CC2)cc1 | 13.4
Cc1ccccc1COC(=O)N1CCN(Cc2cncn2Cc2ccc(C#N)cc2)CC1 | 6.4

1. N#Cc1ccc(Cn2cncc2CN2CCN(C(=O)OCc3cccc4c3OCO4)CC2)cc1
2. CCOc1ccccc1COC(=O)N1CCN(Cc2cnc(C)n2Cc2ccc(C#N)cc2)CC1
Hello, I am sorting some records. Could you say if 1 or 2 has the smaller IC50 value? Lab note: record the label of whichever item you select.
2

----------
# Test target: Geranylgeranyl transferase type I (Homo sapiens, UniProt P49354+P53609)
# Experiment: Inhibition of geranylgeranylation of C-terminal CAAX sequence of Rap 1a in PSN-1 cells
# Format: functional, cell-based
pEC50: −log10 of the molar value.
Measure name: pEC50

Given smiles | pEC50
Cc1ncc(CN2CCN(C(=O)OCc3ccccc3OC(F)(F)F)CC2)n1Cc1ccc(C#N)cc1 | 6.18
COCc1ccccc1COC(=O)N1CCN(Cc2cnc(C)n2Cc2ccc(C#N)cc2)CC1 | 6.17

----------
# Test target: Geranylgeranyl transferase type I (Homo sapiens, UniProt P49354+P53609)
# Experiment: Inhibition of [1-3H]-GGPP incorporation into biotinylated K4B-Ras peptide by geranylgeranyl transferase in the presence of 5 mM ATP
# Type: protein-complex assay
Measure name: IC50 (nM)

a. Cc1ccccc1COC(=O)N1CCN(Cc2cncn2Cc2ccc(C#N)cc2)CC1
b. COCc1ccccc1COC(=O)N1CCN(Cc2cnc(C)n2Cc2ccc(C#N)cc2)CC1
c. Cc1ncc(CN2CCN(C(=O)OCc3ccccc3OC(F)(F)F)CC2)n1Cc1ccc(C#N)cc1
Hello, I need these entries ordered by IC50, highest reading first. Thanks! Give your ranking as a list of the labels in the requested order.
b, c, a
(b: 178 nM, c: 53 nM, a: 9.1 nM)

----------
# Test target: Protein farnesyltransferase (Homo sapiens, UniProt P49354+P49356)
# Experiment: The concentration required to displace 50% of a highly potent radiolabeled FPTase inhibitor
# Assay type: protein-complex assay
Measure name: IC50 (nM)

Some entries whose results are on file:
Given smiles | IC50, nM
COc1ncccc1COC(=O)N1CCN(Cc2cncn2Cc2ccc(C#N)cc2)CC1 | 13
Cc1ccccc1COC(=O)N1CCN(Cc2cncn2Cc2ccc(C#N)cc2)CC1 | 62.9
N#Cc1ccc(Cn2cncc2CN2CCN(C(=O)OCc3ccccc3CC(F)(F)F)CC2)cc1 | 0.85

A. N#Cc1ccc(Cn2cncc2CN2CCN(C(=O)OCc3cccc4c3OCO4)CC2)cc1
B. CCOc1ccccc1COC(=O)N1CCN(Cc2cnc(C)n2Cc2ccc(C#N)cc2)CC1
Hello, I am sorting some records. Could you say if A or B has the smaller IC50 value? Lab note: record the label of whichever item you select.
B
(B: 1.13 nM, A: 10.9 nM)

I. CCOc1ncccc1COC(=O)N1CCN(Cc2cncn2Cc2ccc(C#N)cc2)CC1
II. Cc1cccc(COC(=O)N2CCN(Cc3cncn3Cc3ccc(C#N)cc3)CC2)c1
// which entry has the larger IC50 value, I or II ? Lab note: record the label of whichever item you select.
II
(II: 166 nM, I: 8.67 nM)

P. N#Cc1ccc(Cn2cncc2CN2CCN(C(=O)OCc3cccc(OC(F)(F)F)c3)CC2)cc1
Q. N#Cc1ccc(Cn2cncc2CN2CCN(C(=O)OCc3ccccc3Cl)CC2)cc1
Hello, I am sorting some records. Could you say if P or Q has the smaller IC50 value? Lab note: record the label of whichever item you select.
Q

1. N#Cc1ccc(Cn2cncc2CN2CCN(C(=O)OCc3ccccc3OC(F)(F)F)CC2)cc1
2. CCOc1ccccc1COC(=O)N1CCN(Cc2cncn2Cc2ccc(C#N)cc2)CC1
3. COCc1ccccc1COC(=O)N1CCN(Cc2cncn2Cc2ccc(C#N)cc2)CC1
Sequence the entries by IC50, beginning with the highest number. Give your ranking as a list of the labels in the requested order.
3, 2, 1

----------
# Test target: Geranylgeranyl transferase type I (Homo sapiens, UniProt P49354+P53609)
# Experiment: Inhibition of [1-3H]-GGPP incorporation into biotinylated K4B-Ras peptide by geranylgeranyl transferase in the presence of 5 mM ATP
# Format: protein-complex assay
pIC50: −log10 of the molar value.
Measure name: pIC50

Given smiles | pIC50
COc1ncccc1COC(=O)N1CCN(Cc2cncn2Cc2ccc(C#N)cc2)CC1 | 7.32
N#Cc1ccc(Cn2cncc2CN2CCN(C(=O)OCc3ccccc3Cl)CC2)cc1 | 9.17

I. N#Cc1ccc(Cn2cncc2CN2CCN(C(=O)OCc3cccc(OC(F)(F)F)c3)CC2)cc1
II. N#Cc1ccc(Cn2cncc2CN2CCN(C(=O)OCc3cccc4c3OCO4)CC2)cc1
// which entry has the larger pIC50 value, I or II ? Lab note: record the label of whichever item you select.
II
(II: 7.70, I: 7.13)

A. CCOc1ncccc1COC(=O)N1CCN(Cc2cncn2Cc2ccc(C#N)cc2)CC1
B. N#Cc1ccc(Cn2cncc2CN2CCN(C(=O)OCc3ccc4c(c3)OCO4)CC2)cc1
Hello, I am sorting some records. Could you say if A or B has the smaller pIC50 value? Lab note: record the label of whichever item you select.
B
